- tested.system: PDE4D1 (Homo sapiens)
- Sequence (Q08499 1-584 isoform Q08499-4): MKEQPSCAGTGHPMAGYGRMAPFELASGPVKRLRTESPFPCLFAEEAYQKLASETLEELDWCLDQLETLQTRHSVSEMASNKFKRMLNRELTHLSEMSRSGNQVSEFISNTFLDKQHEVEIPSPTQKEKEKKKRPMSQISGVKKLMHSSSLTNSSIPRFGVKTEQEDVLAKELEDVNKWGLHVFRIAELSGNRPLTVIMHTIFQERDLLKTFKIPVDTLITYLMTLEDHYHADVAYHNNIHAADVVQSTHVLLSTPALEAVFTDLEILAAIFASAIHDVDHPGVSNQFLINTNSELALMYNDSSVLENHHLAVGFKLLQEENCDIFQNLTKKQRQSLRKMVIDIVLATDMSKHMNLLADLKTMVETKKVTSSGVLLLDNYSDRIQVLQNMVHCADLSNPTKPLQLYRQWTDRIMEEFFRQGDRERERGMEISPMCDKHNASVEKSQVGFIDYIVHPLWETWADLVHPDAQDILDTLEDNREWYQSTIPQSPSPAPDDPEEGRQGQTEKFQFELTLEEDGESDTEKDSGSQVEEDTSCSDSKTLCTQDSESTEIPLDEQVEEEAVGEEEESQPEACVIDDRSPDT
measurement.kind: IC50 (nM)
Report the value in nM with no unit label.

Give the value of IC50 reported for the following: O=C(Cc1c(Cl)c[n+]([O-])cc1Cl)c1ccc(OC(F)F)c2c1OC1(CCS(=O)(=O)CC1)O2 [Compound (I)]
9

====

- tested.system: PDE4B1 (Homo sapiens, UniProt Q07343)
- Sequence (Q07343 whole entry): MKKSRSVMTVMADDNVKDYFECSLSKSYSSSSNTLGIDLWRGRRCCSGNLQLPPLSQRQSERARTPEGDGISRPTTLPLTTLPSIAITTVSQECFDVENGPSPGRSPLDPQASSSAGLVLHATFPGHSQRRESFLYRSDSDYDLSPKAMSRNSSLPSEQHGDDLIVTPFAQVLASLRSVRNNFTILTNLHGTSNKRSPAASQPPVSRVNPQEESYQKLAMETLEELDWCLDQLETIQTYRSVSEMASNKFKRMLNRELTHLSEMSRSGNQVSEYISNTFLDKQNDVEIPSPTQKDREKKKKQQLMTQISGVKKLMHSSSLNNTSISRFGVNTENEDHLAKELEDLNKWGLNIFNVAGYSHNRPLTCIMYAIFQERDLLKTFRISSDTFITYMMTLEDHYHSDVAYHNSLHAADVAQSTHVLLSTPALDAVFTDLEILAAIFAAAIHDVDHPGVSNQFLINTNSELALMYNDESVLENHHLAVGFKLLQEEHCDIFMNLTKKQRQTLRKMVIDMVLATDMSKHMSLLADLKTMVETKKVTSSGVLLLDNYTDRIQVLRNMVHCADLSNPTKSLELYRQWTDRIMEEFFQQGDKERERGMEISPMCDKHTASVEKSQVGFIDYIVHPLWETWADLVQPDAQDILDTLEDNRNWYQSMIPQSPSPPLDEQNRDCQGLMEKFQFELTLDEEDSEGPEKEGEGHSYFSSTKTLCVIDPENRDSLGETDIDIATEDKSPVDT
measurement.kind: pIC50
# reply with the number alone; pIC50 is -log10 of concentration in mol/L

Give the value of pIC50 reported for the following: O=C(Cc1c(Cl)c[n+]([O-])cc1Cl)c1ccc(OC(F)F)c2c1OC1(CCS(=O)(=O)CC1)O2
7.80

Provenance of the data: patent US20250268876A1
